Measured protein stability index, listed per entry.
B1: SEC22B (parent)
chain: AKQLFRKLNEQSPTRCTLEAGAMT

variants of: B1; test: protein stability index of a GFP-peptide fusion (GPS, HEK-293T) (PSI 1-6); higher = more stable; conditions: c terminus: a fixed tail appended;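 further: lentivirally expressed fusions sorted by FACS into six bins by GFP to DsRed ratio, PSI derived from sequencing read proportions per bin multiplied by bin number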
Keep the answer to the number alone.

For orientation, consider the following solved cases.
> print(dat)
   mutation.name         measurement.type  data.value
1           G21C  protein stability index        2.58
2           Q11C  protein stability index        2.13
3           E19I  protein stability index        1.64
4           S12V  protein stability index        1.45
5            F5E  protein stability index        2.97

For the variant "L18K" , what protein stability index is on record?
2.7

For the variant "F5R" , what protein stability index is on record?
3.22

For the variant "A22H" , what protein stability index is on record?
1.82

For the variant "K2M" , what protein stability index is on record?
1.8

For the variant "Q11F" , what protein stability index is on record?
1.65

For the variant "P13V" , what protein stability index is on record?
2.46

For the variant "G21H" , what protein stability index is on record?
1.94

For the variant "E19N" , what protein stability index is on record?
2.95
